# Assay Summary: logP by LC-MS on reversed-phase columns (C 18), method [b], acidic range pH 2.7
# Type: physicochemical
# Assay Setup: pH 2.7, log p
Hi! Just check whether chromatographic logP is below 4. Below gives true, equal or above gives false.

Take a look at these entries with their results.
1) COC(C)c1cccc(Nc2ncc(C(F)(F)F)c(NC3CCC3)n2)c1 (stereo not drawn) [Example 19] :: true
2) CCCS(=O)(=O)c1cccc(Nc2ncc(C(F)(F)F)c(NC3CCC3)n2)c1 [Example 34] :: true
3) CCS(=O)(=O)C(C)c1cccc(Nc2ncc(Cl)c(NC3CCC3)n2)c1 (stereo not drawn) [Example 77] :: true
4) CCS(=O)(=O)c1cccc(Nc2ncc(Cl)c(NC3CC3)n2)c1 [Example 113] :: true
5) CCOCCOc1ccc(Nc2ncc(C(F)(F)F)c(NC3CC3)n2)cc1 [Example 91] :: true

Below 4 on chromatographic logP? Entry CCC(SC)c1cccc(Nc2ncc(C(F)(F)F)c(NC3CC3)n2)c1 (stereo not drawn) [Example 62] false

Below 4 on chromatographic logP? Entry COC(C)c1cccc(Nc2ncc(Cl)c(NC3CCC3)n2)c1 (stereo not drawn) [Example 15] true

Below 4 on chromatographic logP? Entry CCCSc1cccc(Nc2ncc(C(F)(F)F)c(NC3CC3)n2)c1 [Example 109] false

Below 4 on chromatographic logP? Entry CSC(C)c1cccc(Nc2ncc(C(F)(F)F)c(NC3CCCC3)n2)c1 (stereo not drawn) [Example 16] false

----------
Consider the following compounds; for each one, report its log p.
# Assay Summary: logP by LC-MS on reversed-phase columns (C 18), method [b], acidic range pH 2.7
# Type: physicochemical
# Assay Setup: method [b], LC-MS, acidic range pH 2.7

1. CCCSc1cccc(Nc2ncc(Br)c(NC3CC3C)n2)c1 (stereo not shown) :: 3.83[b]
2. COCc1cccc(Nc2ncc(Br)c(NC3CC(C)C3)n2)c1 (stereo not shown) :: 2.55[b]
3. CCSC(C)c1cccc(Nc2ncc(Cl)c(NC3CC3CC)n2)c1 (stereo not shown) :: 3.99[b]
4. CCOC(C)c1cccc(Nc2ncc(Br)c(NC3CC3C)n2)c1 (stereo not shown) :: 2.89[b]
5. CCOCCOc1cc(Nc2ncc(Cl)c(NC3CC3)n2)ccc1C :: 2.23[b]

Look at each compound and report its log p.
1. COC(C)c1cccc(Nc2ncc(Br)c(NC3CC(C)C3)n2)c1 (stereo not shown)
2. O=S(=O)(CCCl)c1cc(Nc2ncc(Cl)c(NC3CC3)n2)ccc1Cl
3. COC(C)c1cccc(Nc2ncc(Br)c(NC3CC3C)n2)c1 (stereo not shown)
4. COCc1cccc(Nc2ncc(Br)c(NC3CC3C)n2)c1 (stereo not shown)
5. CCC1CC1Nc1nc(Nc2cccc(C(C)OC)c2)ncc1Cl (stereo not shown)

["2.84[b]", "2.67[b]", "2.5[b]", "2.15[b]", "2.76[b]"]

----------
# Assay Summary: logP by LC-MS on reversed-phase columns (C 18), method [c], neutral range pH 7.8
# Type: physicochemical
# Assay Setup: method [c], LC-MS, neutral range pH 7.8
Assay Readout: log p

1. CCOC(C)c1cccc(Nc2ncc(Br)c(NC3CC3C)n2)c1 (stereo not shown) :: 4.42[c];
2. COCc1cccc(Nc2ncc(Br)c(NC3CC3C)n2)c1 (stereo not shown) :: 3.59[c];
3. CCCSc1cccc(Nc2ncc(Br)c(NC3CC3C)n2)c1 (stereo not shown) :: 5.09[c];

# evaluate next
# return recorded log p for entry COC(C)c1cccc(Nc2ncc(Br)c(NC3CC3C)n2)c1 (stereo not shown) 3.98[c];
